Target or system M. tuberculosis; recorded quantity MIC.
Hi! Could you send only the number? It should be in µM, unit omitted.

{"compound": "NNC(=O)c1ccncc1 [INH, Isoniazid, reference compound]", "assay target": "M. tuberculosis", "MIC [µM]": 2.27}
{"compound": "CC(C)COc1ccc(-c2nn(-c3ccccc3)cc2CO)cc1", "assay target": "M. tuberculosis", "MIC [µM]": 13.5}

Now for a further compound.
Look up MIC of CO[C@H]1/C=C/O[C@@]2(C)Oc3c(C)c(O)c4c(O)c(c(/C=N/N5CCN(C)CC5)c(O)c4c3C2=O)NC(=O)/C(C)=C\C=C\[C@H](C)[C@H](O)[C@@H](C)[C@@H](O)[C@@H](C)[C@H](OC(C)=O)[C@@H]1C [RIF, Rifampicin, reference compound] and report it. 0.048

Data credit: paper PMC5584760
